test system: mouse bone marrow cells; assay: Metabolism promoting action on mouse bone marrow cells (mitochondrial metabolism activity, MTT reduction method); assay type: cell-based, BALB/c mouse; conditions: Mus musculus, Bone marrow cell, 120 h; Test compound concentration 6.25 µg/ml; 5 days; magnitude of metabolism, no test compound = one
Mark Met only when activity at 6.25 µg/mL stays strictly below 200%. Values equal to the cut-off are Not met.

>>> class_name("CCCCCCCCCOc1ccc(C2COc3cc(O)c(CCC(C)C)c(OC)c3C2)c(OCCCCCCCCC)c1CCC(C)C (centres unmarked) [A-17]")
"Met"
>>> class_name("COc1cc(OC)c2c(c1)OCC(c1ccc(O)cc1O)C2 (centres unmarked) [B-2]")
"Not met"
>>> class_name("COc1ccc(C2COc3cc(O)c(CC=C(C)C)c(OC)c3C2)c(O)c1CC=C(C)C (centres unmarked) [A-7]")
"Met"
>>> class_name("COc1cc(OC)c2c(c1)OCC(c1ccc(O[Si](C)(C)C(C)(C)C)cc1O[Si](C)(C)C(C)(C)C)C2 (centres unmarked) [B-6]")
"Met"
>>> class_name("COc1cc(OC)c2c(c1)OCC(c1ccc(OCc3ccccc3)cc1OCc1ccccc1)C2 (centres unmarked) [B-1]")
"Met"

---

system: mouse bone marrow cells; test: Metabolism promoting action on mouse bone marrow cells (mitochondrial metabolism activity, MTT reduction method); assay type: cell-based, BALB/c mouse; details: Mus musculus, Bone marrow cell, 120 h; Test compound concentration 0.78 µg/ml; 5 days; magnitude of metabolism, no test compound = one
# activity at 0.78 µg/mL annotations
Reported metric: activity at 0.78 µg/mL (%)

>>> result("COc1ccc(C2COc3cc(O)c(CC=C(C)C)c(OC)c3C2)c(O)c1CC=C(C)C (centres unmarked)")
112
>>> result("COc1cc(OC)c2c(c1)OCC(c1ccc(OCC=C(C)C)cc1OCC=C(C)C)C2 (centres unmarked)")
111
>>> result("COc1cc2c(c(OC)c1CC=C(C)C)CC(c1ccc(O)cc1O)CO2 (centres unmarked)")
133
>>> result("COc1cc(O)c2c(c1)OCC(c1ccc(OCc3ccccc3)cc1OCc1ccccc1)C2 (centres unmarked)")
100
>>> result("COc1cc(OC)c2c(c1)OCC(c1ccc(O[Si](C)(C)C(C)(C)C)cc1O[Si](C)(C)C(C)(C)C)C2 (centres unmarked)")
103
>>> result("COc1ccc(C2COc3cc(OC)cc(OC)c3C2)c(OC)c1 (centres unmarked)")
91
>>> result("COc1cc(OC)c2c(c1)OCC(c1ccc(O)cc1O)C2 (centres unmarked)")
116
>>> result("CCCCCCCCCOc1ccc(C2COc3cc(O)c(CCC(C)C)c(OC)c3C2)c(OCCCCCCCCC)c1CCC(C)C (centres unmarked)")
117
